measurement_protocol: NCI Yeast Anticancer Drug Screen. Data for the bub3 strain (AID 167)
condition_parameters: S. cerevisiae bub3 mutant strain, at 50.0 µM, hits give high values
This is part of a sample that, as a whole, favours compounds with a hit. Of some 79,000 tested, about 15% had one in any assay. Activity calls are given as the source filed them. Rule as the data show it: active = growth inhibition above about 70%; inactive = the rest.

# compound, growth inhibition
data = [
    ("CCCCCCCCCC(=O)N(C)OC", "-4.6% (inactive)"),
    ("Cc1cccc(C)c1OC(=O)Nc1ccccc1", "9.7% (inactive)"),
    ("COc1ccc(NC(=O)CC(=O)N2N=C(N(c3ccccc3)c3ccccc3)CC2c2ccccc2)cc1 (stereo unspecified)", "17.6% (inactive)"),
    ("CC(C(=O)O)C(C)C(=O)Nc1ccccc1 (stereo unspecified)", "1.5% (inactive)"),
    ("Nc1cccc(/C=C/c2cccc([N+](=O)[O-])c2)c1", "60.3% (inactive)"),
    ("O=C(OC[P+](c1ccccc1)(c1ccccc1)c1ccccc1)c1ccccc1", "38.6% (inactive)"),
    ("Cc1nnc(N=Nc2c(O)[nH]c3ccccc23)[nH]c1=O", "2.65% (inactive)"),
    ("Cc1cccc(C)c1Nc1cc(=O)[nH]c(=O)[nH]1", "-11.6% (inactive)"),
    ("COc1ccc2c(c1)C1c3ccccc3CCN1CCC2 (stereo unspecified)", "-8.4% (inactive)"),
    ("CC[n+]1ccc(C#N)cc1", "2.6% (inactive)"),
    ("COc1ccc(/C=C/C(C)=O)c(OC)c1", "0.05% (inactive)"),
    ("COC(=O)c1ccc(C)[n+](C2OC(COC(=O)c3ccccc3)C(OC(=O)c3ccccc3)C2OC(=O)c2ccccc2)c1 (stereo unspecified)", "-14.2% (inactive)"),
    ("O=[N+]([O-])[C@@H]1C[C@@H]2C=C[C@H]1CC2", "0.3% (inactive)"),
    ("COc1ccccc1Nc1nc(N)nc(N)c1N=O", "-34.6% (inactive)"),
    ("CCN1CCCC(N)C1 (stereo unspecified)", "-41.8% (inactive)"),
    ("C=C1COC(/C=C(\\C)CC/C=C(\\C)CCl)C1 (stereo unspecified)", "-17.1% (inactive)"),
    ("CC1(C)OC(CP(=O)(c2ccccc2)c2ccccc2)C(CP(=O)(c2ccccc2)c2ccccc2)O1 (stereo unspecified)", "-2.2% (inactive)"),
    ("O=C(CCCCCCCCC(=O)OCc1ccccc1)OCc1ccccc1", "11.2% (inactive)"),
    ("CC(C)(C)n1c(=O)[nH]c(=O)n1C(C)(C)C", "-32.8% (inactive)"),
    ("CC(C)(C)NC(=O)C12C3C4C1C1C2C3C41C(=O)NC(C)(C)C (stereo unspecified)", "-26.1% (inactive)"),
    ("C(=C1/NC(c2ccccc2)=Nc2ccccc21)/c1ccccc1", "4.85% (inactive)"),
    ("C/C(=N/C(=O)NN)c1ccc(Cl)cc1", "37.2% (inactive)"),
    ("CNC(=O)OCC1=CC(=O)C=C(OC)C1=O", "2.45% (inactive)"),
    ("COC(=O)c1ccccc1O", "1.25% (inactive)"),
    ("CC(=O)OCC1OC(OC(C)=O)C(NS(=O)(=O)c2ccc(C)cc2)C(OC(C)=O)C1OC(C)=O (stereo unspecified)", "-3.65% (inactive)"),
    ("CCOCCOCCOc1c(Cl)cc(Cl)cc1Cl", "30.2% (inactive)"),
    ("c1cc2nc(c1)CSCCCCCCCCSC2", "55% (inactive)"),
    ("C=C(C)CN(CC(=C)C)c1nc(N)nc(N)n1", "-2.1% (inactive)"),
    ("Nc1ccc2c(c1)Oc1c(F)c(F)cc3c(=O)c(C(=O)O)cn-2c13", "0% (inactive)"),
    ("O=C(Nc1ccccc1)OC1CCCC12CC2 (stereo unspecified)", "-2.25% (inactive)"),
    ("CC(=O)C(C)C(=O)N1C(=O)N(C)C2(C)N(C)C(=O)NC12C (stereo unspecified)", "-5.8% (inactive)"),
    ("Nc1nc[n+](Cc2ccccc2)c2ncn(Cc3ccccc3)c12", "-14.7% (inactive)"),
    ("CC(=O)CC(=O)Nc1ccc(NC(=O)CC(C)=O)cc1", "-23.5% (inactive)"),
    ("CC1CCC(O)(C(C)(C(=O)O)c2ccccc2)CC1 (stereo unspecified)", "-54.8% (inactive)"),
    ("CNC(=O)C1CCC(=O)N1CN(C(C)=O)c1ccccc1 (stereo unspecified)", "-13.9% (inactive)"),
    ("C=Nc1ccc([N+](=O)[O-])c(N=C)c1", "2.7% (inactive)"),
    ("CCC/C=C1\\CCC(CN(C)C)C1=O (stereo unspecified)", "-11.9% (inactive)"),
    ("NC1(N)ON(c2ccc(C=O)cc2)C(c2ccc([N+](=O)[O-])cc2)S1 (stereo unspecified)", "-0.7% (inactive)"),
    ("CCSc1nnc(-c2ccccc2)nc1Cc1ccc(OC)cc1", "-30.5% (inactive)"),
    ("COc1cc(-c2oc3ccccc3c(=O)c2O)cc(OC)c1OC", "-42% (inactive)"),
    ("CC(Cl)(CO)CCl (stereo unspecified)", "-6.4% (inactive)"),
]

// data source = PubChem BioAssay (NCI)
